EXPERIMENTAL_PROTOCOL: S. cerevisiae growth inhibition in restrictive medium, OD615, pilot screen, restrictive growth control, yeast lifespan reduction project (AID 706);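 note: modified DeaD lifespan yeast strain shifted to restrictive glucose medium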
CONDITION_LABEL: OD615, 48 h, at 10 µM, stronger effect = higher value
growth inhibition reference
ENDPOINT: growth inhibition (%)

{"columns": ["COMPOUND", "ENDPOINT", "READOUT_VALUE"],
 "data": [
  ["O=C(COC(=O)C1(c2ccccc2F)CCCC1)NC1CCS(=O)(=O)C1 (stereo unspecified)", "growth inhibition", 2.54],
  ["Cc1noc(C(=O)Nc2ccc3c(c2)OCO3)c1Cl", "growth inhibition", 6.31],
  ["CC(O)CN1C(=O)C(CC(=O)Nc2ccc(Cl)cc2)SC1=Nc1ccccc1 (stereo unspecified)", "growth inhibition", -7.22],
  ["CCN(CCCNS(=O)(=O)c1ccc2c(c1)oc(=O)n2C)c1cccc(C)c1", "growth inhibition", -10.2],
  ["Cc1ccc(C(=O)CC2(O)C(=O)N(C)c3ccc(Br)cc32)c(C)c1 (stereo unspecified)", "growth inhibition", 9.8],
  ["CCCCC(NC(C)=O)c1nc2ccccc2n1CCC (stereo unspecified)", "growth inhibition", -2.95],
  ["Cc1cc2cc(CCNC(=O)CC(C)C)c(=O)[nH]c2cc1C", "growth inhibition", -5.57],
  ["CC(Sc1nc(-c2ccccc2)cc(C(F)(F)F)n1)C(=O)N1CCCC1 (stereo unspecified)", "growth inhibition", -21.7],
  ["CCOc1ccc(NC(=O)CSc2nccn2C)cc1", "growth inhibition", -9.37],
  ["CCOc1ccccc1N1Cc2cc(C)c(C)cc2C1", "growth inhibition", -12.1],
  ["O=C1CCCC2=C1C(c1cccc(Br)c1)n1nc(-c3ccco3)nc1N2 (stereo unspecified)", "growth inhibition", -0.21]
]}

====

EXPERIMENTAL_PROTOCOL: S. cerevisiae growth inhibition in restrictive medium, OD615, pilot screen, restrictive growth control, yeast lifespan reduction project (AID 706);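 note: modified DeaD lifespan yeast strain shifted to restrictive glucose medium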
CONDITION_LABEL: OD615, 48 h, at 10 µM, stronger effect = higher value
growth inhibition reference

{"columns": ["MOLECULE", "growth inhibition [%]"],
 "data": [
  ["CCOC(=O)C1CCN(c2c(NC3CCCc4ccccc43)c(=O)c2=O)CC1 (stereo unspecified)", -3.4],
  ["COc1ccccc1-n1c(=O)[nH]c2c(C(N)=O)nc(CC(C)C)nc21", -13.4],
  ["O=C(CCNS(=O)(=O)c1cccc2nsnc12)NCc1cccs1", -7.42],
  ["COc1ccc(S(=O)(=O)N2CCN(C)CC2)cc1C", -4],
  ["O=C(NCc1ccco1)c1cc(S(=O)(=O)N2CCOCC2)ccc1Cl", -8.34],
  ["C=CCn1c(=O)c(C(=O)Nc2ccccc2OC)c(O)c2ccccc21", -2.46],
  ["Cc1cc(OC2CCCCC2)nc(-c2ccccc2O)n1", -17.2],
  ["O=C(NC1CCCC1)C1c2ccccc2C(=O)N1CCCN1CCOCC1 (stereo unspecified)", -1.37],
  ["Cc1ccc(N2C(=O)c3oc4ccccc4c(=O)c3C2c2cccc(O)c2)nc1 (stereo unspecified)", -3.53],
  ["O=C1CCCC2=C1C(c1cn(-c3ccccc3)nc1-c1cccs1)c1c([nH]c(=O)[nH]c1=O)N2 (stereo unspecified)", -27.7],
  ["CCN(CC)C(=O)C1CCCN(c2ncnc3c2cnn3-c2ccc(Cl)cc2)C1 (stereo unspecified)", 5.38]
]}

====

EXPERIMENTAL_PROTOCOL: growth suppression of yeast trafficking mutant, preliminary HTS, modulators of trafficking downstream of Golgi apparatus project, 1536-format plate, OD 615 nm (AID 637)
CONDITION_LABEL: yeast transport mutant growth, absorbance 615 nm, 18 h; stronger effect = higher value

{"columns": ["COMPOUND", "inhibition (%)"],
 "data": [
  ["CCN1C(=O)c2ccccc2S(=O)c2ccc(C(=O)NC3CC3)cc21 (stereo unspecified)", 3.77],
  ["Cc1ccc(-c2cc(C(F)F)nc(NCc3cccnc3)n2)cc1", 0.48],
  ["CCOC(=O)N1CCC(NC(=O)c2ccc3c(c2)N(CC)CCS3)CC1", -0.33],
  ["O=C(CSC1=NCCS1)NCc1ccco1", 26.5],
  ["CC1=C(C(N)=O)C(c2ccccn2)n2nc(SCc3ccccc3)nc2N1 (stereo unspecified)", -5.64],
  ["O=C(CCNS(=O)(=O)c1cccc2nsnc12)Nc1ccc2c(c1)OCCO2", -1.11],
  ["O=C1CN(c2nc3ccccc3n3cnnc23)CC(=O)N1CCc1ccccc1", -1.17],
  ["CCOC(=O)N1CCN(C(=O)CSc2nnc(-c3cccc(Cl)c3)o2)CC1", -2.95],
  ["CC(=O)NC(CCS(C)(=O)=O)C(=O)Nc1cccc(C)c1C (stereo unspecified)", 4.33],
  ["CC(=O)C1=C(C)Nc2ncnn2C1c1cccc(OCc2ccccc2)c1 (stereo unspecified)", 1.5],
  ["CCOC(=O)c1c(C)n(C)c2c(C)cc(O)c(OC(C)=O)c12", 0.5]
]}

====

viability reference
EXPERIMENTAL_PROTOCOL: viability of PTEN-null HCT116 cells – cell-based, HCT116 clonal line, CellTiter-Glo, pilot screen (AID 824);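 note: 0% = 20 µM Hyamine control and 100% = vehicle cell control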
CONDITION_LABEL: HCT116 PTEN-deleted viability, 60 h, at 10 µM, stronger effect = lower value
Results filed as inconclusive are left out.
ENDPOINT: viability (%)

{"columns": ["MOLECULE", "READOUT_VALUE"],
 "data": [
  ["CC1=C(C(=O)OCc2ccccc2)C(c2ccco2)n2ncnc2N1 (stereo not drawn)", 89],
  ["COc1ccc(C2C(C(=O)Nc3cccnc3)=C(C)Nc3nc(-c4cccs4)nn32)cc1OC (stereo not drawn)", 95.6],
  ["COc1ccc(NC(=O)C2CCCCN2S(=O)(=O)c2ccc(F)cc2)cc1 (stereo not drawn)", 88],
  ["COc1ccc(NC(=O)CSc2nnc(Cc3cccn3C)n2-c2ccc(F)cc2)cc1", 86],
  ["CN1CCN(C(=O)c2ccccc2NC(=O)Cc2ccccc2)CC1", 103],
  ["COc1ccc(S(=O)(=O)Cc2ccc(C(=O)N3CCOCC3)o2)cc1", 99.2],
  ["COc1ccc(C(C)N2CC34C=CC(O3)C(C(=O)OCC(C)C)C4C2=O)cc1 (stereo not drawn)", 88.5],
  ["CCOc1ccc(C2CC(c3cccc(C)c3)n3nc(N)nc3N2)cc1 (stereo not drawn)", 83.2],
  ["CCCc1cc(=O)[nH]c(SCC(=O)NC2CCCCC2)n1", 94.8],
  ["COc1ccccc1C1NC(=O)NC(C)=C1C(=O)Nc1cccc(C)c1C (stereo not drawn)", 102],
  ["COc1ccc(N2Cc3cccc(C(=O)O)c3C2=O)cc1", 101],
  ["CCCC(=O)c1cc(F)c(N2CCN(S(=O)(=O)c3ccccc3)CC2)cc1C", 88.5],
  ["CN(C)S(=O)(=O)c1ccc2c(c1)c(=O)c(C(=O)NCCCN1CCCCCC1)cn2C", 99.5],
  ["Cc1cc(C)cc(N2C(=O)CC(N3CCOCC3)C2=O)c1 (stereo not drawn)", 92.5],
  ["COC(=O)Cn1c(=NC(=O)CSCC(=O)Nc2cc(C)on2)sc2ccccc21", 96.9],
  ["O=C(NC1CCCCCC1)c1c(F)c(F)c(F)c(F)c1F", 93.5],
  ["CC1CCCCC1NC(=O)Cn1ncc2ccccc21 (stereo not drawn)", 95.7],
  ["O=C(CC1(O)C(=O)Nc2ccccc21)c1ccc2c(c1)OCO2 (stereo not drawn)", 96.5],
  ["CCn1cc(C(=O)NCC2CCCO2)c(=O)c2cc(S(=O)(=O)N(C)C3CCCCC3)ccc21 (stereo not drawn)", 87],
  ["CCn1c(=O)c2cc(C(=O)NCCN3CCOCC3)sc2c2ccccc21", 76.1],
  ["O=C(Nc1ccccc1-c1nc2ccccc2s1)c1ccco1", 61.9],
  ["CCOC(=O)Nc1ccc2ncn(C)c(=O)c2c1", 94.8],
  ["Cc1cccc(C)c1OCc1nnc(SCC(=O)Nc2ccccc2F)o1", 98.1]
]}

====

EXPERIMENTAL_PROTOCOL: viability of PTEN-null HCT116 cells – cell-based, HCT116 clonal line, CellTiter-Glo, pilot screen (AID 824);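 note: 0% = 20 µM Hyamine control and 100% = vehicle cell control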
CONDITION_LABEL: HCT116 PTEN-deleted viability, 60 h, at 10 µM, stronger effect = lower value
Inconclusive results are not listed.
ENDPOINT: viability (%)

{"columns": ["MOLECULE", "READOUT_VALUE"],
 "data": [
  ["COc1cccc(C2C(C(N)=O)=C(C)Nc3nc(CCCO)nn32)c1OC (stereo unspecified)", 104],
  ["COC(=O)CN(c1ccc(OC)cc1)S(=O)(=O)c1ccc(OC)c(OC)c1", 99.5],
  ["O=C1CC(c2cccnc2)c2cc3c(cc2N1)OCO3 (stereo unspecified)", 99.8],
  ["Cc1cc(C)nc(SCc2csc(N)n2)n1", 99.6],
  ["O=C1c2ccccc2C(Nc2ccc(F)c(Cl)c2)N1Cc1ccco1 (stereo unspecified)", 77.1],
  ["CC1CCc2nn(CC(=O)Nc3ccc(F)cc3F)cc2C1 (stereo unspecified)", 98.3]
]}
